- System: Candida albicans
- procedure.summary: Antifungal activity against Candida albicans ATCC 10231 by broth microdilution method
- Type: functional
Catalogue of MIC readings, one per entry.
Provide the measurement as a number trailed by its unit.

Below are worked cases with known answers.
line.notation | test.target | MIC
O=c1oc(-n2cncn2)cc2ccccc12 | Candida albicans | 20 µg/mL
C[C@@H](c1ncncc1F)[C@](O)(Cn1cncn1)c1ccc(F)cc1F | Candida albicans | 7.8 µg/mL

The record that follows has no MIC shown yet.
Query (compound): COC(=O)/C=C/c1cc2ccccc2c(=O)o1 ; field requested: MIC
500 µg/mL

* * *

- Test system: Candida albicans
- procedure.summary: Antifungal activity against Candida albicans ATCC 10231 by broth microdilution method
- Type: functional
assay.metric: MIC (µg/mL)
Give the number; µg/mL is assumed, so skip it.

line.notation | measured.result
O=c1oc(-n2cccn2)cc2ccccc12 | 31.2
C[Si](C)(C)C#Cc1cc2ccccc2c(=O)o1 | 250
O=c1oc(Br)cc2ccccc12 | 15.6
O=c1oc(-n2c(C(F)(F)F)nc3ccccc32)cc2ccccc12 | 150
O=c1oc(-n2cnnn2)cc2ccccc12 | 15.6

Query (compound): CCOC(=O)c1cn(-c2cc3ccccc3c(=O)o2)cn1 ; field requested: MIC
62.5

Query (compound): O=c1oc(-n2cc(Cl)cn2)cc2ccccc12 ; field requested: MIC
5

Query (compound): O=c1oc(-n2ccnc2)cc2ccccc12 ; field requested: MIC
62.5

Origin of the recorded values: ChEMBL document CHEMBL3745700
